Let's go through some Ki measurements on Carbonic anhydrase 1 (Homo sapiens) together.
Sequence (P00915 whole entry): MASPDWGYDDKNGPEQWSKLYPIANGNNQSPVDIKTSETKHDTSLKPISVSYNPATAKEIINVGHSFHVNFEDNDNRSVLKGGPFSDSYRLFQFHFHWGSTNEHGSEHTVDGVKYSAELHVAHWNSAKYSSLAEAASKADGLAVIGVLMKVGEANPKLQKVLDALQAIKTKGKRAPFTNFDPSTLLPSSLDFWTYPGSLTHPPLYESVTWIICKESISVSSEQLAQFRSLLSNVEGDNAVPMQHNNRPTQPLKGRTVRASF

Examples with answers:
>>> print(df.to_string())
                              compound  quantity_measured  obs_value
0        COC(=O)CCNS(=O)(=O)NCCC(=O)OC                 Ki   > 200 µM
1  CCCCCCOS(N)(=O)=O [HEXYL SULFAMATE]                 Ki    3.66 µM
2                O=S(=O)(NC1CC1)NC1CC1                 Ki   > 200 µM
3    COC(=O)CNS(=O)(=O)NC(=O)OC(C)(C)C                 Ki   > 200 µM
4                 NS(=O)(=O)NCc1ccccc1                 Ki    0.13 µM
5                  CCCN(CCC)S(N)(=O)=O                 Ki    24.9 µM
6      O=S(=O)(NCCc1ccccc1)NCCc1ccccc1                 Ki   > 200 µM

Supply Ki value. Item: COC(=O)CCNS(=O)(=O)Oc1ccccc1O 88.7 µM

----------
Record form. Attribute: pKi. Fill in for each entry.
# STUDY SYSTEM: Carbonic anhydrase 2 (Homo sapiens)
Give bare numbers, as −log10 of the molar value.

Okay, here is my list. What is pKi for each of these?
1. CCCCCCOS(N)(=O)=O [HEXYL SULFAMATE]
2. CCCCNS(=O)(=O)NCCCC
3. CCCN(CCC)S(N)(=O)=O
4. COC(=O)CNS(=O)(=O)NC(=O)OC(C)(C)C
5. CCCNS(=O)(=O)NCCC

1: 5.55; 2: 4.18; 3: 4.22; 4: 4.25; 5: 3.91

----------
As an illustration, consider measured Ki for molecules on Carbonic anhydrase 7 (Homo sapiens, UniProt P43166).
Sequence (P43166 whole entry): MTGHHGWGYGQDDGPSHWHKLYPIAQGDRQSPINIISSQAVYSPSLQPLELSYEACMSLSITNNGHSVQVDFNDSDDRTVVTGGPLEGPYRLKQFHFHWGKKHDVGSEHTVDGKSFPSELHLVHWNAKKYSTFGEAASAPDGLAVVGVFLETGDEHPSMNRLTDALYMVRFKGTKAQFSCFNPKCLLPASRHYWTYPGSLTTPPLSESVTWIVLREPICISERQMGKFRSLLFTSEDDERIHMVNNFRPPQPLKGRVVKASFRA
Answers are plain numbers, in nM.

Reference set (3 entries):
In [3]: df
Out[3]:
                              molecule                              study_system  quantity_measured  measure_unit  obs_value
0    CCCN(CCC)S(=O)(=O)NC(=O)OC(C)(C)C  Carbonic anhydrase 7 (Homo sapiens, UniProt P43166)                 Ki            nM        320
1  CCCCCCOS(N)(=O)=O [HEXYL SULFAMATE]  Carbonic anhydrase 7 (Homo sapiens, UniProt P43166)                 Ki            nM        700
2                O=S(=O)(NC1CC1)NC1CC1  Carbonic anhydrase 7 (Homo sapiens, UniProt P43166)                 Ki            nM        160

State recorded Ki for all listed molecules.
1. CC(C)(C)OC(=O)NS(=O)(=O)NCc1ccccc1
2. NS(=O)(=O)NCc1ccccc1
3. O=S(=O)(N1CCOCC1)N1CCOCC1

1. 170
2. 300
3. 470

----------
# STUDY SYSTEM: Carbonic anhydrase 14 (Homo sapiens, UniProt Q9ULX7)
# Sequence (Q9ULX7 whole entry): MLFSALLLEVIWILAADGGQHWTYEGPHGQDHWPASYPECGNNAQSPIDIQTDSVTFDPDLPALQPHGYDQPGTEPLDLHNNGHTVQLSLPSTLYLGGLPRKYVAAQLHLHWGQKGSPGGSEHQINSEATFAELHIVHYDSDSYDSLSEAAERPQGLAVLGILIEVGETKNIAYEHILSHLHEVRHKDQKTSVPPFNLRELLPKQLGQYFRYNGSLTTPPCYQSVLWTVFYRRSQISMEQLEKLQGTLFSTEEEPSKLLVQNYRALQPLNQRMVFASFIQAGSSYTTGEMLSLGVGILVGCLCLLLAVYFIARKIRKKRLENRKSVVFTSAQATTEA
pKi: −log10 of the molar value.
Entry flag: Yes if pKi reaches 5; No if it does not.

>>> df
                              molecule  assigned_label
0  CCCCCCOS(N)(=O)=O [HEXYL SULFAMATE]             Yes
1      CCCCN(CCCC)S(=O)(=O)N(CCCC)CCCC              No
2   CC(C)(C)OC(=O)NS(=O)(=O)NCc1ccccc1              No

Query molecule follows.
Reported pKi at or above 5? O=S(=O)(N1CCOCC1)N1CCOCC1 No

----------
Here we list compounds with their recorded pKi when tested on UniProt:O43570.
Sequence (O43570 whole entry): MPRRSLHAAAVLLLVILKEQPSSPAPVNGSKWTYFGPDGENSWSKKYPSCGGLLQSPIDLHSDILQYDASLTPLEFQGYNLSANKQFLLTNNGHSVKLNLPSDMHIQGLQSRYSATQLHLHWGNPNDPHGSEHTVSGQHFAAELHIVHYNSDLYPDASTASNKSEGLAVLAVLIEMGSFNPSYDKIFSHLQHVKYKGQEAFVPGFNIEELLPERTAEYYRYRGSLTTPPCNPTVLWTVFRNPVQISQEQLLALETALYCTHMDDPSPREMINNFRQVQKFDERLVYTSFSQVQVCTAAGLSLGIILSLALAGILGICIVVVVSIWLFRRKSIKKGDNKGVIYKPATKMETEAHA
One number for each entry, as −log10 of the molar value.

In [3]: df
Out[3]:
                                   compound  obs_value
0         COC(=O)CNS(=O)(=O)NC(=O)OC(C)(C)C       4.25
1  COC(=O)[C@@H](NS(=O)(=O)N[C@H](C(=O)OC)C(C)C)C(C)C       4.14
2       CCCCCCOS(N)(=O)=O [HEXYL SULFAMATE]       6.14
3                  CCCCNS(=O)(=O)NCCC(=O)OC       4.21
4                      NS(=O)(=O)NCc1ccccc1       6.03

Supply reported pKi belonging to this compound: CCCC(CCC)COS(N)(=O)=O 6.05

----------
pKi, Carbonic anhydrase 2 (Homo sapiens): measured values
pKi: −log10 of the molar value.

                                     smiles  obs_value
0  COC(=O)[C@@H](NS(=O)(=O)N[C@H](C(=O)OC)C(C)C)C(C)C     < 3.70
1                  CCCCNS(=O)(=O)NCCC(=O)OC     < 3.70

Next, consider the following compound.
Supply pKi value. Item: COC(=O)[C@H](C)NS(=O)(=O)NC(=O)OC(C)(C)C < 3.70
